tgt: p70S6K human enzyme (Homo sapiens, UniProt P23443, T412E)
Construct: purchased Upstate Chemicon 14-486
Sequence (P23443 1-421 T412E limits assumed): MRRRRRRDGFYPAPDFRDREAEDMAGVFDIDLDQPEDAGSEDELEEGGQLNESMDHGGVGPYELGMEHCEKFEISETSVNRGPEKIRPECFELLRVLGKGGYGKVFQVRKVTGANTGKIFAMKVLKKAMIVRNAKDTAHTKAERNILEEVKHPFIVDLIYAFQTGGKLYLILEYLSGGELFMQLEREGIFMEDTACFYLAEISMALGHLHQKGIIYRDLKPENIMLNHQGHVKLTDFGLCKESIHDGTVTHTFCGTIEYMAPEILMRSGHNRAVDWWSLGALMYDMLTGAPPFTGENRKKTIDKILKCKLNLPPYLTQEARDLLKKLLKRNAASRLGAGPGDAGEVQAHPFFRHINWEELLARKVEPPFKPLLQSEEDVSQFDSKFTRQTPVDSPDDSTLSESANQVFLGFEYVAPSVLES
assay summary: p70S6K inhibition assay (IMAP FP);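 note: kinase reaction run at room temperature, phosphorylated substrate captured on IMAP beads and read as fluorescence polarization in mP, IC50 then converted to Ki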
Format: biochemical
reported conditions: average Ki; read-out: p70S6K Ki
Each entry below lists one item and its recorded Ki value.
# unit: nM | format: bare number

Clc1ccc(CN2CCC[C@H](Nc3ccc4[nH]ncc4c3)C2)cc1 [Compound 1.141]    387
CCS(=O)(=O)Nc1cccc(CN2CC[C@@H](Nc3cccc4cnccc34)C2)c1 [Compound 2.041]    2100
Cc1ccc(CN2CCC[C@@H](Nc3ccc4[nH]ncc4c3)C2)cc1OCCO [Compound 1.161]    129

Req: Look up and report measured Ki for this entry: c1cc(C2CC2)ccc1CN1CCC[C@@H](Nc2ccc3[nH]ncc3c2)C1 [Compound 1.206]
Resp: 314

###

tgt: ROCK2 (Homo sapiens, UniProt O75116)
Construct: purchased Upstate/Chemicon 14-451
Sequence (O75116 11-552 limits assumed): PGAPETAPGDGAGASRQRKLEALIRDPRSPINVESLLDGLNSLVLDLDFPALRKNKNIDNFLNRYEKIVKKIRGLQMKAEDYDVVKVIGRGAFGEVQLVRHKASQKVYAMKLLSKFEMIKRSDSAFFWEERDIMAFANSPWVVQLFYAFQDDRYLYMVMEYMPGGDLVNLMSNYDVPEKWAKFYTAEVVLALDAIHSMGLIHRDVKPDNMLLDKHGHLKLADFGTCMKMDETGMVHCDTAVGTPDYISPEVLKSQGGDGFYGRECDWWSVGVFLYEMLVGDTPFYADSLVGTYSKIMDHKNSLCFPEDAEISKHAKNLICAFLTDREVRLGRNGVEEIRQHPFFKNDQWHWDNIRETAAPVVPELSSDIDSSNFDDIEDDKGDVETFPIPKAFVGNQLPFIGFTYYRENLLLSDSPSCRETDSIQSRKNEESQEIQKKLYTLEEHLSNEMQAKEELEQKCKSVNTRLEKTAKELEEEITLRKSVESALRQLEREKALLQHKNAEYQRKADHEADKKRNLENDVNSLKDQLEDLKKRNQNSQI
assay summary: Rho kinase inhibition assay (IMAP fluorescence polarization), ROCK2
Assay type: biochemical
reported conditions: average Ki; read-out: ROCK2 Ki
Each entry below lists one item and its recorded Ki value.
Give me the value, and tack the unit on after it.

Cc1cccc(CN2CCC[C@H](Nc3ccc4[nH]ncc4c3)C2)c1    16 nM

Req: Look up and report measured Ki for this entry: Cc1ccc(S(=O)(=O)Nc2cc(CN3CCC[C@H](Nc4ccc5[nH]ncc5c4)C3)ccc2C)cc1
Resp: 6.3 nM

Req: Look up and report measured Ki for this entry: CCCCS(=O)(=O)Nc1cc(CN2CCC[C@H](Nc3ccc4[nH]ncc4c3)C2)ccc1C
Resp: 2.1 nM

Req: Look up and report measured Ki for this entry: Oc1cccc(CN2CCC[C@H](Nc3ccc4[nH]ncc4c3)C2)c1
Resp: 2.9 nM

Req: Look up and report measured Ki for this entry: c1ccc2c(CN3CCC[C@@H](Nc4ccc5[nH]ncc5c4)C3)c[nH]c2c1
Resp: 4.5 nM

Req: Look up and report measured Ki for this entry: c1cc(N[C@@H]2CCN(Cc3ccc4cc[nH]c4c3)C2)c2ccncc2c1
Resp: 3.7 nM

Req: Look up and report measured Ki for this entry: CC(=O)NCc1cccc(CN2CCC[C@H](Nc3ccc4[nH]ncc4c3)C2)c1
Resp: 5 nM

Req: Look up and report measured Ki for this entry: c1cc(N[C@@H]2CCN(Cc3ccc4[nH]ccc4c3)C2)c2ccncc2c1
Resp: 1.8 nM

###

tgt: ROCK2 (Homo sapiens, UniProt O75116)
Construct: purchased Upstate/Chemicon 14-451
assay summary: Rho kinase inhibition assay (IMAP fluorescence polarization), ROCK2;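 note: kinase reaction started with 10 µM ATP and run 60 min at room temperature, then phosphorylated substrate captured on IMAP beads for 30 min and fluorescence polarization read in mP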
Format: biochemical
reported conditions: 10 μM ATP; read-out: ROCK2 Ki, Avg
Each entry below lists one item and its recorded Ki value.
# unit: nM | format: bare number

CC1(C)OC[C@H](COc2cccc(CN3CCC[C@@H](Nc4ccc5[nH]ncc5c4)C3)c2)O1    75.5
Cn1ccnc1CN1CCC[C@H](Nc2ccc3[nH]ncc3c2)C1    168
OCCn1ccc2cc(CN3CC[C@@H](Nc4cccc5cnccc45)C3)ccc21    2.3
Brc1cccc(CN2CCC[C@H](Nc3ccc4[nH]ncc4c3)C2)c1    16.8
CC(=O)NCc1cccc(CN2CCC[C@@H](Nc3ccc4[nH]ncc4c3)C2)c1    20.2
Brc1ccc(CN2CCC[C@@H](Nc3ccc4[nH]ncc4c3)C2)cc1    4.4
c1cc(N2CCCC2)ccc1CN1CCC[C@@H](Nc2ccc3[nH]ncc3c2)C1    891
OCc1ccc(CN2CCC[C@H](Nc3ccc4[nH]ncc4c3)C2)cc1    15.7

Req: Provide Ki, recorded with ROCK2 (Homo sapiens, UniProt O75116), of CSc1ccc(CN2CC[C@@H](Nc3cccc4cnccc34)C2)cc1
Resp: 13

Req: Provide Ki, recorded with ROCK2 (Homo sapiens, UniProt O75116), of CSc1cccc(CN2CCC[C@@H](Nc3ccc4[nH]ncc4c3)C2)c1
Resp: 10.1
